Reference for the values: patent US9440952B2

Reported pIC50 values are given for each entry in this list.
molecular target: LRRK2(G2019S mutation, GST-LRRK2(amino acids 970-2527)) (Homo sapiens, UniProt Q5S007, G2019S); construct: GST-LRRK2(amino acids 970-2527); GST (N); purchased Life Technologies Corporation; assay: LRRK2 Km ATP LanthaScreen Assay; assay type: biochemical; settings: Km ATP LanthaScreen; mean IC50 of several tests; read-out: LRRK2 IC50
Sequence (Q5S007 970-2527 G2019S): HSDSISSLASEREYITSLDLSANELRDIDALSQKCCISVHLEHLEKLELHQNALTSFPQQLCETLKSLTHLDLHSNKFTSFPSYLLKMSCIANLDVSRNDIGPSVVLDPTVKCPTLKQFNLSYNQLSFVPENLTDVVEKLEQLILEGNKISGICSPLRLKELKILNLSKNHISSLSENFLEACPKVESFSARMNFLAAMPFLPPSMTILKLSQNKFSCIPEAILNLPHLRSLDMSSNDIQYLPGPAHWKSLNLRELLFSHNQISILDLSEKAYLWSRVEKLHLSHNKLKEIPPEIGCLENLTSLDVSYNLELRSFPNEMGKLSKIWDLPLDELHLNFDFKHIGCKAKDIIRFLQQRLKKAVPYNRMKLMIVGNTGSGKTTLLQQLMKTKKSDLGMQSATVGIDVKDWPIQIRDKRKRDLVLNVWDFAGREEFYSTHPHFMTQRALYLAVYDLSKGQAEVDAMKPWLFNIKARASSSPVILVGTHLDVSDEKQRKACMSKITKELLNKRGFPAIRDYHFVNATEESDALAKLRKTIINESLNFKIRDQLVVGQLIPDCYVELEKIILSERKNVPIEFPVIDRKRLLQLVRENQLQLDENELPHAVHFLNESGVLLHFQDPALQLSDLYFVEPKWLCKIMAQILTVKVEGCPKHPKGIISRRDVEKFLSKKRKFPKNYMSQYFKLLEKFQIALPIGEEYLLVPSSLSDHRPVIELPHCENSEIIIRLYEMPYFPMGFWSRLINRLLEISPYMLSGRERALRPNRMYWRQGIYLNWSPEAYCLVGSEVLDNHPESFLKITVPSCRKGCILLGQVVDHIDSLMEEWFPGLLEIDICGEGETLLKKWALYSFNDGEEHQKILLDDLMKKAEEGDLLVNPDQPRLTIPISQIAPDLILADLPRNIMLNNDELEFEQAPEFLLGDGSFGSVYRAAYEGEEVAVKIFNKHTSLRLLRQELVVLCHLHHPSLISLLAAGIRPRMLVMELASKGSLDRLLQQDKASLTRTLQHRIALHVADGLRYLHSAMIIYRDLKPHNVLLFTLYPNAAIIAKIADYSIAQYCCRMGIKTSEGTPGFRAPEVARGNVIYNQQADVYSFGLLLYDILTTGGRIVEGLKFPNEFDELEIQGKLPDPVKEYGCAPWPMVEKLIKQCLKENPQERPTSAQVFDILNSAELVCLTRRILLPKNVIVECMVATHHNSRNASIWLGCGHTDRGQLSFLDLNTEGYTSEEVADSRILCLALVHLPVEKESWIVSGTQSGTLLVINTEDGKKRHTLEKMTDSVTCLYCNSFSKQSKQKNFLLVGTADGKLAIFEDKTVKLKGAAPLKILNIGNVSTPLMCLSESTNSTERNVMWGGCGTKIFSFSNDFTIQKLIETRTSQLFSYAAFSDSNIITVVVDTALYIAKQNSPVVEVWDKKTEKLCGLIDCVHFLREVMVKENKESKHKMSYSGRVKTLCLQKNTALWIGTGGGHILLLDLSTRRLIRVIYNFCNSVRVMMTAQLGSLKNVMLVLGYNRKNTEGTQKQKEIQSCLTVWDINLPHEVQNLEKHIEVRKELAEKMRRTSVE
pIC50: −log10 of the molar value.
measured_endpoint: pIC50

>>> print(df.to_string())
                                    molecule  relation_symbol  value_reported
 0  c1cc(-c2ccc3[nH]nc(-c4ccnc(N5CCOCC5)c4)c3c2)[nH]n1                >            9.22
 1  CC(C)Oc1ccc2[nH]nc(-c3ccnc(NS(=O)(=O)c4cccc(F)c4)c3)c2c1                =            7.37
 2  CC(C)Oc1ccc2[nH]nc(-c3ccnc(N4CC5(COC5)C4)c3)c2c1                =            8.23
 3  Oc1nccnc1-c1ccc2[nH]nc(-c3ccnc(N4CCOCC4)c3)c2c1                >            9.22
 4  Cc1nnc(-c2ccc3[nH]nc(-c4ccnc(N5CC(F)C5)c4)c3c2)o1                =            8.31
 5  COCC(C)Oc1ccc2[nH]nc(-c3ccnc(N4CCOCC4)c3)c2c1 (stereo not drawn)                =            8.27
 6  CC(C)(O)COc1ccc2[nH]nc(-c3ccnc(N4CCOCC4)c3)c2c1                =            7.85
 7  Cn1cc(-c2cc3c(-c4ccnc(N5CCOCC5)c4)n[nH]c3cc2F)cn1                =            7.92
 8  Cn1cc(-c2ccc3[nH]nc(-c4ccnc(N5CCN(CCO)CC5)c4)c3c2)cn1                =            8.77
 9  CC(C)(O)Cc1ccc2[nH]nc(-c3ccnc(N4CCOCC4)c3)c2c1                =            7.03
10  CCS(=O)(=O)c1ccc2[nH]nc(-c3ccnc(N4CCOCC4)c3)c2c1                =            7.32
11  Oc1cc(-c2ccc3[nH]nc(-c4ccnc(N5CCOCC5)c4)c3c2)ccn1                =            8.47
12  Cn1cc(-c2ccc3[nH]nc(-c4ccnc(N5CCC(C(=O)O)CC5)c4)c3c2)cn1                =            8.44
13     CCOc1ccc2[nH]nc(-c3ccnc(NCCOC)c3)c2c1                =            8.21
14  CCOc1nccnc1-c1ccc2[nH]nc(-c3ccnc(N4CCOCC4)c3)c2c1                =            8.80
15  c1cc(-c2n[nH]c3ccc(CNCC4CC4)cc23)cc(N2CCOCC2)n1                =            6.37
16  Cn1cc(-c2ccc3[nH]nc(-c4ccnc(N5CC6CCC(C5)O6)c4)c3c2)cn1                =            8.72
17    Fc1ccc2c(-c3ccnc(N4CCOCC4)c3)n[nH]c2c1                =            7.49
